Recorded values, source ChEMBL document CHEMBL3244362.

# Species: Oryctolagus cuniculus
# methodSummary: Binding affinity to angiotensin 2 receptor in albino New Zealand rabbit aorta relative to [Sar1]AT in absence of UV light
Square brackets hold non-standard residues; d marks the D form. Peptide text beside a SMILES is read from it. Phe(4-N3) = [N-]=[N+]=Nc1ccc(C[C@H](N)C(=O)O)cc1; Sar = CNCC(=O)O
valueKind: RBA (%)
// note: answer is a bare numeric in %

Any idea what its RBA is? The compound is CNCC(=O)N[C@@H](CCCNC(=N)N)C(=O)N[C@H](C(=O)N[C@@H](Cc1ccc(N=[N+]=[N-])cc1)C(=O)N[C@H](C(=O)N[C@@H](Cc1cnc[nH]1)C(=O)N1CCC[C@H]1C(=O)N[C@@H](Cc1ccc(N=[N+]=[N-])cc1)C(=O)O)C(C)C)C(C)C (H-[Sar]RV[Phe(4-N3)]VHP[Phe(4-N3)]-OH)
0.07

Follow-up item: `CNCC(=O)N[C@@H](CCCNC(=N)N)C(=O)N[C@H](C(=O)N[C@@H](Cc1ccc(O)cc1)C(=O)N[C@H](C(=O)N[C@@H](Cc1cnc[nH]1)C(=O)N1CCC[C@H]1C(=O)N[C@@H](Cc1ccc([N+](=O)[O-])cc1)C(=O)O)C(C)C)C(C)C`
69

---

# Organism: Oryctolagus cuniculus
# methodSummary: Intrinsic activity at angiotensin 2 receptor in albino New Zealand rabbit aorta in absence of UV light
# Format: tissue-based
Square brackets hold non-standard residues; d marks the D form. Peptide text beside a SMILES is read from it. Phe(4-NO2) = N[C@@H](Cc1ccc([N+](=O)[O-])cc1)C(=O)O; Phe(4-N3) = [N-]=[N+]=Nc1ccc(C[C@H](N)C(=O)O)cc1; Phe(4-N2+) = N#[N+]c1ccc(C[C@H](N)C(=O)O)cc1; Sar = CNCC(=O)O
Provide the recorded Intrinsic activity for the entries that follow.
// no unit, no text: just the number

Need Intrinsic activity of CNCC(=O)N[C@@H](CCCNC(=N)N)C(=O)N[C@H](C(=O)N[C@@H](Cc1ccc([N+](=O)[O-])cc1)C(=O)N[C@H](C(=O)N[C@@H](Cc1cnc[nH]1)C(=O)N1CCC[C@H]1C(=O)N[C@@H](Cc1ccc([N+](=O)[O-])cc1)C(=O)O)C(C)C)C(C)C (H-[Sar]RV[Phe(4-NO2)]VHP[Phe(4-NO2)]-OH) , thanks.
0.5

Moving on to CNCC(=O)N[C@@H](CCCNC(=N)N)C(=O)N[C@H](C(=O)N[C@@H](Cc1ccc(N=[N+]=[N-])cc1)C(=O)N[C@H](C(=O)N[C@@H](Cc1cnc[nH]1)C(=O)N1CCC[C@H]1C(=O)N[C@@H](Cc1ccc(N=[N+]=[N-])cc1)C(=O)O)C(C)C)C(C)C (H-[Sar]RV[Phe(4-N3)]VHP[Phe(4-N3)]-OH)
0.8

Again, but for `CNCC(=O)N[C@@H](CCCNC(=N)N)C(=O)N[C@H](C(=O)N[C@@H](Cc1ccc(O)cc1)C(=O)N[C@H](C(=O)N[C@@H](Cc1cnc[nH]1)C(=O)N1CCC[C@H]1C(=O)N[C@@H](Cc1ccc([N+]#N)cc1)C(=O)O)C(C)C)C(C)C`
1

And what about the compound `CNCC(=O)N[C@@H](CCCNC(=N)N)C(=O)N[C@H](C(=O)N[C@@H](Cc1ccc(O)cc1)C(=O)N[C@H](C(=O)N[C@@H](Cc1cnc[nH]1)C(=O)N1CCC[C@H]1C(=O)N[C@@H](Cc1ccc([N+](=O)[O-])cc1)C(=O)O)C(C)C)C(C)C` ?
0.46

Moving on to CNCC(=O)N[C@@H](CCCNC(=N)N)C(=O)N[C@H](C(=O)N[C@@H](Cc1ccc([N+]#N)cc1)C(=O)N[C@H](C(=O)N[C@@H](Cc1cnc[nH]1)C(=O)N1CCC[C@H]1C(=O)N[C@@H](Cc1ccc([N+]#N)cc1)C(=O)O)C(C)C)C(C)C (H-[Sar]RV[Phe(4-N2+)]VHP[Phe(4-N2+)]-OH)
1

Queued: CNCC(=O)N[C@@H](CCCNC(=N)N)C(=O)N[C@H](C(=O)N[C@@H](Cc1ccc([N+]#N)cc1)C(=O)N[C@H](C(=O)N[C@@H](Cc1cnc[nH]1)C(=O)N1CCC[C@H]1C(=O)N[C@@H](Cc1ccccc1)C(=O)O)C(C)C)C(C)C (H-[Sar]RV[Phe(4-N2+)]VHPF-OH)
1

---

# Species: Oryctolagus cuniculus
# methodSummary: Intrinsic activity at angiotensin 2 receptor in albino New Zealand rabbit aorta in absence of UV light
# Type: tissue-based
Square brackets hold non-standard residues; d marks the D form. Peptide text beside a SMILES is read from it. Phe(4-NO2) = N[C@@H](Cc1ccc([N+](=O)[O-])cc1)C(=O)O; Phe(4-N3) = [N-]=[N+]=Nc1ccc(C[C@H](N)C(=O)O)cc1; Sar = CNCC(=O)O
valueKind: Intrinsic activity
Output spec: single numeric token, no unit.

Need Intrinsic activity of `CNCC(=O)N[C@@H](CCCNC(=N)N)C(=O)N[C@H](C(=O)N[C@@H](Cc1ccc(O)cc1)C(=O)N[C@H](C(=O)N[C@@H](Cc1cnc[nH]1)C(=O)N1CCC[C@H]1C(=O)N[C@@H](Cc1ccc(N=[N+]=[N-])cc1)C(=O)O)C(C)C)C(C)C` , thanks.
1

Could you do the same for CNCC(=O)N[C@@H](CCCNC(=N)N)C(=O)N[C@H](C(=O)N[C@@H](Cc1ccc(O)cc1)C(=O)N[C@H](C(=O)N[C@@H](Cc1cnc[nH]1)C(=O)N1CCC[C@H]1C(=O)N[C@@H](Cc1ccccc1)C(=O)O)C(C)C)C(C)C (H-[Sar]RVYVHPF-OH) , please?
1

Here is the next molecule: CNCC(=O)N[C@@H](CCCNC(=N)N)C(=O)N[C@H](C(=O)N[C@@H](Cc1ccc([N+](=O)[O-])cc1)C(=O)N[C@H](C(=O)N[C@@H](Cc1cnc[nH]1)C(=O)N1CCC[C@H]1C(=O)N[C@@H](Cc1ccccc1)C(=O)O)C(C)C)C(C)C (H-[Sar]RV[Phe(4-NO2)]VHPF-OH)
0

Would you kindly repeat that for CNCC(=O)N[C@@H](CCCNC(=N)N)C(=O)N[C@H](C(=O)N[C@@H](Cc1ccc(N=[N+]=[N-])cc1)C(=O)N[C@H](C(=O)N[C@@H](Cc1cnc[nH]1)C(=O)N1CCC[C@H]1C(=O)N[C@@H](Cc1ccccc1)C(=O)O)C(C)C)C(C)C (H-[Sar]RV[Phe(4-N3)]VHPF-OH) ?
0.75
